MEASURED ON: L-type calcium channel (Rattus norvegicus, UniProt P22002+P27732+Q02485)
PROTOCOL SUMMARY: Inhibition of rat L-type calcium channel at 10 uM
RECORDED ENDPOINT: inhibition at 10 µM

[ask] State its inhibition at 10 µM on L-type calcium channel (Rattus norvegicus, UniProt P22002+P27732+Q02485): O=S(=O)(c1cccc(F)c1)c1ccc2c3c(oc2c1)C1(CCCOC1)NCC3 (stereo in doubt; 2)
[reply] > 50%

====

MEASURED ON: 5-hydroxytryptamine receptor 2B (Homo sapiens, UniProt P41595)
Sequence (P41595 whole entry): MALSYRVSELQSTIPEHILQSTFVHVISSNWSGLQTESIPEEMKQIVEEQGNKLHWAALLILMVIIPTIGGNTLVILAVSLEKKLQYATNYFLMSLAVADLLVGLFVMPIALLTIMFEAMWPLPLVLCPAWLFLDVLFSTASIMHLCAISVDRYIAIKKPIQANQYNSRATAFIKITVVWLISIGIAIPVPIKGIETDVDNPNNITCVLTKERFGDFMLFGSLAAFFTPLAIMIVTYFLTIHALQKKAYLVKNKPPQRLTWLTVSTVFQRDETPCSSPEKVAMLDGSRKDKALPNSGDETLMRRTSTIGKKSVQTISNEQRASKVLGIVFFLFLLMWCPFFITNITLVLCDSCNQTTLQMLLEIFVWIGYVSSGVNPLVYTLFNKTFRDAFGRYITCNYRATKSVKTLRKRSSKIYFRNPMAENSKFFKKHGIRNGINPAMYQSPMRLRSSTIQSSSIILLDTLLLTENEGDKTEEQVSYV
PROTOCOL SUMMARY: Antagonist activity at 5HT2B receptor
RECORDED ENDPOINT: IC50 (nM)
Numbers only, in nM.

[ask] May I ask what IC50 has been recorded for O=S(=O)(c1cccc(F)c1)c1ccc2c3c(oc2c1)C1(CCCOC1)NCC3 (stereo in doubt; 2) ?
[reply] 1500
